These data points were gathered from PubChem BioAssay AID1508600.

assay: Components of the Cytosolic LPS Sensing Pathway: Gene Identification via Genome-wide siRNA Screen; settings: RAW264.7 macrophages, IL-1a HTRF, actives lie on both sides, screened at 100 nM (by protocol), cells primed 5 h with Pam3CSK4 first;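 note: robust z of the log signal after scaling to non-targeting control siRNA wells of the plate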
Hit rate of the full screen: of about 53,000 sequences, about 3,700 (7%) were called active. Only a selection was taken, and actives are over-represented in it overall.
For each entry below, report its z-score value.
The answer should be written as a number, with no unit following it.

Name the recorded z-score for GGGACACAGCUAAAAGCUUTT against Fam20b .
0.146

Please give the result for GCCCAAAAAGUGCUUGCUGTT against Tmem215 too.
-1.76

Please give the result for CCAGACAUUUGAUAGCCAUTT against Fam241a too.
-1.42

Please give the result for GGAGCUCAAGAGCUGGGUUTT against Tor2a too.
-1.1

Please give the result for GGAGACCUGAAUUUUUCAGTT against Tab2 too.
0.469

Please give the result for GGAAUCUUCCAGAACUAAATT against Rufy1 too.
0.912

Please give the result for GGAGUUGUAGUGAGGGUCATT against Fcgbp too.
-0.971

Please give the result for GGAUCAACCUAGAAGCUUGTT against Strada too.
-0.192

Please give the result for CGGUCCUGAAUGAUCCUACTT against Gp2 too.
0.969

Please give the result for GGUGGGCACUCUGGUUUUUTT against Eif4e too.
4.66

Please give the result for GCCAAACGUGGGUUUGAUATT against Ccna1 too.
4.74

Please give the result for GGUCAGCCAGACCAUUUCUTT against Edc3 too.
-1.27

Please give the result for GCUUUGGCUCAAAGCACGUTT against Mcm3 too.
1.93

Please give the result for GGUGGUGAAUAUGAUGAUATT against Tsr1 too.
-0.712

Please give the result for GGGUAUUCAUGAUGUCUUUTT against Kctd6 too.
1.39

Please give the result for CCCUGGUCGUCAUUUUCAATT against Morc2b too.
1.54

Please give the result for CGAUCCUCAUCUUUAUAUATT against Agbl1 too.
-0.33

Please give the result for GGCAAGCUUCCAGAUCGAATT against Adam23 too.
0.0113

Please give the result for CGUUUGUUACUCUUCAGCUTT against Olfr1461 too.
-1.07

Please give the result for GCACUGCUAUUUACAAAAATT against Tex16 too.
-1.73

Please give the result for GGAAUAUGAGAAAAUGAGCTT against Ctsc too.
0.239

Please give the result for GCUAGAUGCUAUGAAGCGATT against Ap3b1 too.
-0.406

Please give the result for GGCCCAACGACAUUUAUGUTT against Pop7 too.
-1.38

Please give the result for GGUCAUCAAUGCCACAGCUTT against Lpo too.
-2.24

Please give the result for GGUUCCAUCUUCUCAGGACTT against Olfr395 too.
1.01

Please give the result for GGCAAUGGAGAGAGAGAUGTT against Patl1 too.
-2.36

Please give the result for CCAUUCCCGCAUCCAUGUGTT against Zfp672 too.
-2.23

Please give the result for CCUAAAGUCACAUCUAAGATT against Pum3 too.
1.06

Please give the result for GGUCGUCUUUUAAGAGUUUTT against Ccdc71l too.
3.03

Please give the result for GGCUAUGUCUGUUUCCUUUTT against Defa-rs10 too.
0.963

Please give the result for GGACUAUGUCUUUGACAAATT against Cdyl2 too.
-0.133

Please give the result for GGAGACCCACUACAUGACUTT against H2-M2 too.
-0.982

Please give the result for GCCGGAUUGAGAUCUCUAUTT against 1500015L24Rik too.
0.734

Please give the result for GCGAUUGUCCAAGAAUUCCTT against Crcp too.
0.822

----------
assay: Components of the Cytosolic LPS Sensing Pathway: Gene Identification via Genome-wide siRNA Screen; conditions: RAW264.7 macrophages, IL-1a HTRF, actives lie on both sides, screened at 100 nM (by protocol), cells primed 5 h with Pam3CSK4 first;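 note: robust z of the log signal after scaling to non-targeting control siRNA wells of the plate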
In all, about 53,000 sequences went through this assay and about 3,700 (7%) were called active. This excerpt belongs to a sample that is enriched for actives.
For each entry below, report its z-score value.
The answer should be written as a number, with no unit following it.

Name the recorded z-score for GGUGAUUUGCUCAAUCCAATT against Phox2a .
0.611

Please give the result for CCUCAACUCCCUGUCACACTT against Rnaseh2a too.
0.944

Please give the result for GGACAUUUUUCAUUUGUGATT against Zfhx4 too.
1.28

Please give the result for GGCUUUGUAGCGAUAACAATT against D930030D11Rik too.
-0.936

Please give the result for GGGAAACACCUGGGUGCUUTT against Ctrl too.
-1.07

Please give the result for GAUUUGGUGUCUGCCGAGATT against Prrt1 too.
1.73

Please give the result for GGAAACAAGAAGAACGAUGTT against Camk2a too.
1.47

Please give the result for GGACACCAAUCACAUUUGATT against Cngb3 too.
-2.21

Please give the result for GUUACAAAACAUCGGUGGGTT against Vsig2 too.
1.06

Please give the result for CGGGCAGUACUAUGAUUUGTT against Ppp1cc too.
2.09

Please give the result for GUGAGUAGGUAGGAAGCAUTT against Cd200r2 too.
-2.56

Please give the result for CCCUUUAUUAUUCCACUGUTT against Olfr530 too.
-1.12

Please give the result for GGAACAGUCGUGGUAAAGUTT against Gnl2 too.
-0.767

Please give the result for GCUGCUAUGACCUAUGGCATT against Sptlc2 too.
-0.543

Please give the result for GCCCAAAUGAGACUACUUUTT against Ces1e too.
-1.24

Please give the result for GGAUCAACAGAGGUUGGCATT against Aldh1a7 too.
-2.03

Please give the result for CCAUCAUUUAUGAAGACCCTT against Dcaf7 too.
-1.44

Please give the result for GCUUUCUCUUAUGGAUCUATT against Olfr700 too.
0.966

Please give the result for GGAAUAUACCCUGAAACAUTT against Fam71d too.
0.0244

Please give the result for GGCAGAAACCCUUCUAUGUTT against Bmp8a too.
-1.55

Please give the result for GCCGUUAGAAACAAAGUCGTT against Taf3 too.
-2.48

Please give the result for CGGUAUUUCAUCCUGGAUATT against Plekha1 too.
0.403

Please give the result for GGACAAGAAUAAGUACAACTT against Rpl5 too.
-0.918

Please give the result for CGAUUACUUGGAAAACCAATT against Ifne too.
-1.21

Please give the result for CGGGUGCUAAAAUGUCUAUTT against Khdrbs2 too.
2.81

----------
assay: Components of the Cytosolic LPS Sensing Pathway: Gene Identification via Genome-wide siRNA Screen; conditions: RAW264.7 macrophages, IL-1a HTRF, actives lie on both sides, screened at 100 nM (by protocol), cells primed 5 h with Pam3CSK4 first;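 note: robust z of the log signal after scaling to non-targeting control siRNA wells of the plate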
The whole screen tested about 53,000 sequences, of which about 3,700 (7%) were called active. Only a selection was taken, and actives are over-represented in it overall.
Just so you know, the groups by z-score go like this: low interval = under -0.4, middle interval = from -0.4 up to 0.5, high interval = 0.5 and over

Determine which band this sequence sits in: GGACAUGAAAGUUGACCUGTT against Mrps31
middle interval

Please give the result for GGAUGAAAAAUCAGUACUUTT against Aadac too.
low interval

Please give the result for GGUCCUUUGAUGCUGACUGTT against Sfrp4 too.
low interval

Please give the result for GAGCUAAGCAAGAUGCUAGTT against Sox17 too.
high interval

Please give the result for GGUUCCAAGUCAAAGAGUUTT against Foxl1 too.
low interval

Please give the result for CCAAAGUCAUAAUUCCAACTT against Timm23 too.
middle interval

Please give the result for GCUCAUCGUGUUUUCAACCTT against Cbr3 too.
middle interval

Please give the result for CCCAAAUGAUUGGAUCUGUTT against Cd40lg too.
middle interval

Please give the result for GCCAUUAAGAUCGCUUACUTT against Selenop too.
low interval

Please give the result for GGAAGCUGCUUUUCUAAAUTT against Il7 too.
high interval

Please give the result for GGGAUACUACUUUCUAACATT against Rspo3 too.
high interval

Please give the result for GGUGUUUUAUACACUCUGUTT against Mgme1 too.
low interval

Please give the result for GCUGAAGCAUACAUUUGUGTT against Tas2r137 too.
middle interval

Please give the result for GCCGGCUGUAUUCAGUACGTT against Hoxc9 too.
high interval

Please give the result for CAGGAUUCCUUGGACAUACTT against Olfr477 too.
low interval

Please give the result for GGUUACAGAGAGACAUCAUTT against Cdk5rap2 too.
high interval

Please give the result for GGUGAUCCUUAUGCUGUUATT against Ehmt2 too.
middle interval

Please give the result for GCAGCUUGCUUGAUUCAAGTT against Iqcb1 too.
middle interval
